Origin of values: PubChem BioAssay (NCI)

Test system: SK-OV-3 ovarian
Assay Text: NCI tumour cell line growth inhibition, 48 h
Some compounds, each annotated with its measured TGI.

Please review the entries below; each comes with its answer.
# Compound, Recorded Measurement
records = [
    ("O=C(CSc1nnc(Cc2ccccc2)o1)Nc1ccc(Cl)cc1Cl", "> 100 µM"),
    ("CC(=O)c1c(C)cn(S(=O)(=O)NC(=O)Nc2nncs2)c1C", "> 100 µM"),
    ("Cc1cc(CN2CCCCC2)c(O)c(CN2CCCCC2)c1", "> 100 µM"),
    ("CC(C1CCCC1=O)C1CCCC1=O (stereo unspecified)", "> 100 µM"),
    ("O=C1C=C(Nc2ccccc2C(=O)c2ccccc2)c2ccccc2C1=O", "> 100 µM"),
]

Quick note, TGI for `COc1ccc(CN=C2N/C(=C\c3ccccc3Cl)C(=O)N2C)cc1` landed at > 100 µM

In plain terms, COc1ccc(C2C(C#N)=C(N)Oc3c2sc2c(C)cccc32)cc1 (stereo unspecified) has a documented TGI of 41.7 µM

For this compound ( CC(C)CC(N=Cc1nc(-c2ccccc2)oc1O)C(=O)O (stereo unspecified) ), measured TGI is > 100 µM

The compound listed as `CCCOC(=O)c1ccc2c(c1)[N+](=O)C(C(=O)c1ccccc1)=C(C(F)(F)F)[N+]2=O` has a reported TGI of 3.33 µM

# TGI (compound: `COC(=O)c1cc(CC2Cc3cc4c(cc3C2)CCC4)cc2c1CCC2` ) is > 100 µM

// TGI lookup, compound = COc1cccc2c1C(=O)C1(O)CCCCC21 (stereo unspecified) , result: > 100 µM

* * *

Test system: HOP-92 NSCLC
Assay Text: NCI tumour cell line growth inhibition, 48 h
Measured Quantity: TGI

# Molecule, Recorded Measurement
records = [
    ("CC(=O)c1ccc(NC(=O)/C(CC(=O)/C=C/c2ccccc2)=N/NC(N)=S)cc1", "> 100 µM"),
    ("CSC(N)=Nc1cccc2ccccc12", "> 10 µM"),
    ("Cc1ccc2ccc(O)cc2c1", "80.9 µM"),
    ("COc1cccc2c(Nc3ccc(C(=O)O)cc3)cc(-c3ccccc3)nc12", "> 100 µM"),
    ("O=C1OC(c2ccc(O)c(F)c2)(c2ccc(O)c(F)c2)c2cccc3cccc1c23", "> 25 µM"),
    ("C/C=C1/C[C@@H](C)[C@@](C)(O)C(=O)OCC2=CC[N+]3([O-])CC[C@@H](OC1=O)[C@@H]23 (stereo not given in full)", "> 100 µM"),
]

response.value for `COC(=O)c1c(O)ccc2c1c1c(n2CCc2ccccc2)C(=O)c2ccccc2C1=O` (field: TGI) = 31.4 µM

Per the records, this molecule ( CC(=O)OC1(C)C(=O)OC/C2=C/CN(C)CCC(OC(=O)C(O)(C(C)Cl)CC1C)C2=O (stereo not given) ) has TGI equal to > 100 µM

Field TGI (entry `COCn1cnc2c(=O)n(-c3ccc(C)cc3)c(=S)n(-c3ccc(C)cc3)c21` ) reads > 100 µM

In plain terms, CC(NS(=O)(=O)c1ccc(Cl)cc1)C(=O)O (stereo not given) has a documented TGI of > 100 µM

* * *

Test system: SK-MEL-28 melanoma
Assay Text: NCI tumour cell line growth inhibition, 48 h
Known TGI of a selection of compounds
Express the result in µM but write the number alone.

# Compound, Recorded Measurement
records = [
    ("CC(=O)c1c(SCCN2CCCCCC2)n(-c2ccccc2)c(=S)n(-c2ccccc2)c1=O", 23.4),
    ("C/C(=N/NC(=S)N1CCCCC1)c1cccc(/C(C)=N\\NC(=S)N2CCCCC2)n1", 4.32),
    ("C#Cc1nc(N)c2ncn(C3OC(COS(N)(=O)=O)C(O)C3O)c2n1 (centres undefined)", 0.298),
]

Note to self: TGI recorded for `COc1ccc(/C=C/C(=O)c2ccc(NC(=O)CSc3nnc(-c4ccc(OC)c(OC)c4)n3-c3ccccc3)cc2)cc1` was 19.2

# compound C=C1C(=O)c2sccc2C(c2ccc(OC)c(OC)c2)C1COC(C)=O (centres undefined) ; its TGI = 4.42

In plain terms, `Cc1cc2nc3c4cc(C=O)ccc4n(CCN(C)C)c3nc2cc1C` has a documented TGI of 3.65

Value of TGI reported for the compound `Cc1c(C)c(S(=O)(=O)N(CCCCCCN)OCCCN)c(C)c2c1OC(C)(C)CC2` is 71.9

Summary for this compound, `Cc1ccc(-c2c3c(nn2-c2ccc(S(=O)(=O)NC(=O)Nc4ccccc4)cc2)-c2ccccc2C3)cc1` : TGI is 46.9

Lab note: measured TGI of Cc1cn(C2CC(Br)C(COC(c3ccccc3)(c3ccccc3)c3ccccc3)O2)c(=O)[nH]c1=O (centres undefined) was 30.3

Recorded TGI (compound `COc1cc2c3c(c1O)N=NC=3CCN=2` ): 32.1
